# Test system: Pseudomonas aeruginosa CMCC10104
# Format: cell-based
Ends that are not written are not given here.
For each record, write down the corresponding MIC.
Hey, just the number and the unit after it is fine.

Lab note: KWKLFKKIGIGRLLRRLLRRLLR [GK-2] gave MIC of 12 µg/mL

Lab note: KWKLFKKIGIGRLLKRGLRKLLK [GK-1] gave MIC of 10 µg/mL

Lab note: RFKLFKKIPRLLRRGLRKVLK [GK-19] gave MIC of 4 µg/mL

Lab note: RWRLFKRIGIGRLLKRGLR [GK-3] gave MIC of 1.8 µg/mL

Proceed to the following item.
Lab note: RWKLFKKIEKVGRNVRDGLIKAGPAIAVIGQAKSL [cecropin A1, reference compound] gave MIC of 18 µg/mL
